molecular target: Serine/threonine-protein kinase PAK 4 (Homo sapiens, UniProt O96013); assay type: functional;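 also: value obtained within a kinome profiling panel in which PAK4 was one of the panel members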
Sequence (O96013 whole entry): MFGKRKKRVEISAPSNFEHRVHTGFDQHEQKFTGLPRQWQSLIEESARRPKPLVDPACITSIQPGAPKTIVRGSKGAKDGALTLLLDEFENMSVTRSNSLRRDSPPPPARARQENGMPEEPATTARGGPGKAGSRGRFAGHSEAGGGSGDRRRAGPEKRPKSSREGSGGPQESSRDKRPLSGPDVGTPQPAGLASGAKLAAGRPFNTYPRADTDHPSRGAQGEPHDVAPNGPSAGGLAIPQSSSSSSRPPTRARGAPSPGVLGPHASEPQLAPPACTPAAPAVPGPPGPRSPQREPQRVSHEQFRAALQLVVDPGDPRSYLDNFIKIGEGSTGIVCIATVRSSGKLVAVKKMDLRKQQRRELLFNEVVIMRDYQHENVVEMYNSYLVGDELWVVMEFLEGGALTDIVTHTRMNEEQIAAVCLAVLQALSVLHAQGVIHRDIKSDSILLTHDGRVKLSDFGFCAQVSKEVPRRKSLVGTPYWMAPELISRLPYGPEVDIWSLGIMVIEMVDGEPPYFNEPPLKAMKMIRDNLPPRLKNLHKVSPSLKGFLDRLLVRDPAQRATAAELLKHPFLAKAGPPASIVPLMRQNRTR
Active and inactive are the calls of the source.
quantity-measured: Ki

For orientation, consider the following solved cases.
Problem: Report measured Ki on Serine/threonine-protein kinase PAK 4 (Homo sapiens, UniProt O96013); entry: O=c1[nH]c2cc(Br)cnc2[nH]1
Result: 39.8 µM (active)

Problem: Report measured Ki on Serine/threonine-protein kinase PAK 4 (Homo sapiens, UniProt O96013); entry: CCC1CC(NS(=O)(=O)C2CC2)CC1c1ncc2cnc3[nH]ccc3n12 (centres undefined)
Result: 2.51 µM (active)

Problem: Report measured Ki on Serine/threonine-protein kinase PAK 4 (Homo sapiens, UniProt O96013); entry: O=C(Nc1cccc(C(F)(F)F)n1)Nc1ccnc2cc(Cl)ccc12
Result: > 5.01 µM (inactive)

The record that follows has no Ki shown yet.
Problem: Report measured Ki on Serine/threonine-protein kinase PAK 4 (Homo sapiens, UniProt O96013); entry: O=C(Nc1cccc(C(F)(F)F)n1)Nc1ccnc2cc(OC(F)F)ccc12
Result: > 5.01 µM (inactive)
